molecular target: CF II (hClp1-hPcf11) (Homo sapiens, UniProt Q92989, E22Q); experiment: biochemical
Sequence (Q92989 whole entry E22Q, one chain of several): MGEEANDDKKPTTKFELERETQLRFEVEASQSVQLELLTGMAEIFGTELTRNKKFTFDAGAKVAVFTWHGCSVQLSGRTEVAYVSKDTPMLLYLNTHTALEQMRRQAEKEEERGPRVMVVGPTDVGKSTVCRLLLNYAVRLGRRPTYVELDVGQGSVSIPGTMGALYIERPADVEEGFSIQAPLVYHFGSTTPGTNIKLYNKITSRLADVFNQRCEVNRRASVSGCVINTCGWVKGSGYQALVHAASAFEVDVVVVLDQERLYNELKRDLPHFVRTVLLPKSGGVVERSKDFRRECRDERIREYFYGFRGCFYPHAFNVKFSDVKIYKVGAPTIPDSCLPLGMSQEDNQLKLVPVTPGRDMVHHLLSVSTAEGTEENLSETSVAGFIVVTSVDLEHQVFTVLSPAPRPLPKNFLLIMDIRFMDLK
endpoint: EC50 (µM)
// units = µM; emit number, no label

Query block: Note EC50 for the compound shown: Nc1ncnc2c1ncn2[C@@H]1O[C@H](COP(=O)(O)OP(=O)(O)OP(=O)(O)O)[C@@H](O)[C@H]1O [ATP]
Result block: 95.9

###

molecular target: CF II (hClp1-hPcf11) (Homo sapiens); assay: […]'-dATP titration in reconstituted pre-mRNA cleavage, half-maximal activation; type: biochemical
endpoint: EC50 (µM)
// units = µM; emit number, no label

Query block: Note EC50 for the molecule shown: Nc1ncnc2c1ncn2[C@@H]1O[C@H](COP(=O)(O)OP(=O)(O)OP(=O)(O)O)C[C@H]1O [3'-dATP]
Result block: 46.3

###

target: CF II (hClp1-hPcf11) (Homo sapiens, UniProt Q92989, E22A); test: biochemical
Sequence (Q92989 whole entry E22A): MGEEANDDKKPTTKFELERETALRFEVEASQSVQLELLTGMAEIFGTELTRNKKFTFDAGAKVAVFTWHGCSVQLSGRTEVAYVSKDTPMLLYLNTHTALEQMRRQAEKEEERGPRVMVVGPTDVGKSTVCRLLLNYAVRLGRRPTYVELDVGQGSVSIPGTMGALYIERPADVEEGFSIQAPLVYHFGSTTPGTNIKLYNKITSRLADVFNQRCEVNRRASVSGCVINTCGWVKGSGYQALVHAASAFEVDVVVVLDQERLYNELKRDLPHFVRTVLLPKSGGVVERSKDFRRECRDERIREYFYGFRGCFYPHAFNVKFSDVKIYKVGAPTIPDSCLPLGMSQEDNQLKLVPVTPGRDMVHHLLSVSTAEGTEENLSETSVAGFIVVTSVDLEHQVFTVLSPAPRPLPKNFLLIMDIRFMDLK
Sequence (O94913 2-1555 partner): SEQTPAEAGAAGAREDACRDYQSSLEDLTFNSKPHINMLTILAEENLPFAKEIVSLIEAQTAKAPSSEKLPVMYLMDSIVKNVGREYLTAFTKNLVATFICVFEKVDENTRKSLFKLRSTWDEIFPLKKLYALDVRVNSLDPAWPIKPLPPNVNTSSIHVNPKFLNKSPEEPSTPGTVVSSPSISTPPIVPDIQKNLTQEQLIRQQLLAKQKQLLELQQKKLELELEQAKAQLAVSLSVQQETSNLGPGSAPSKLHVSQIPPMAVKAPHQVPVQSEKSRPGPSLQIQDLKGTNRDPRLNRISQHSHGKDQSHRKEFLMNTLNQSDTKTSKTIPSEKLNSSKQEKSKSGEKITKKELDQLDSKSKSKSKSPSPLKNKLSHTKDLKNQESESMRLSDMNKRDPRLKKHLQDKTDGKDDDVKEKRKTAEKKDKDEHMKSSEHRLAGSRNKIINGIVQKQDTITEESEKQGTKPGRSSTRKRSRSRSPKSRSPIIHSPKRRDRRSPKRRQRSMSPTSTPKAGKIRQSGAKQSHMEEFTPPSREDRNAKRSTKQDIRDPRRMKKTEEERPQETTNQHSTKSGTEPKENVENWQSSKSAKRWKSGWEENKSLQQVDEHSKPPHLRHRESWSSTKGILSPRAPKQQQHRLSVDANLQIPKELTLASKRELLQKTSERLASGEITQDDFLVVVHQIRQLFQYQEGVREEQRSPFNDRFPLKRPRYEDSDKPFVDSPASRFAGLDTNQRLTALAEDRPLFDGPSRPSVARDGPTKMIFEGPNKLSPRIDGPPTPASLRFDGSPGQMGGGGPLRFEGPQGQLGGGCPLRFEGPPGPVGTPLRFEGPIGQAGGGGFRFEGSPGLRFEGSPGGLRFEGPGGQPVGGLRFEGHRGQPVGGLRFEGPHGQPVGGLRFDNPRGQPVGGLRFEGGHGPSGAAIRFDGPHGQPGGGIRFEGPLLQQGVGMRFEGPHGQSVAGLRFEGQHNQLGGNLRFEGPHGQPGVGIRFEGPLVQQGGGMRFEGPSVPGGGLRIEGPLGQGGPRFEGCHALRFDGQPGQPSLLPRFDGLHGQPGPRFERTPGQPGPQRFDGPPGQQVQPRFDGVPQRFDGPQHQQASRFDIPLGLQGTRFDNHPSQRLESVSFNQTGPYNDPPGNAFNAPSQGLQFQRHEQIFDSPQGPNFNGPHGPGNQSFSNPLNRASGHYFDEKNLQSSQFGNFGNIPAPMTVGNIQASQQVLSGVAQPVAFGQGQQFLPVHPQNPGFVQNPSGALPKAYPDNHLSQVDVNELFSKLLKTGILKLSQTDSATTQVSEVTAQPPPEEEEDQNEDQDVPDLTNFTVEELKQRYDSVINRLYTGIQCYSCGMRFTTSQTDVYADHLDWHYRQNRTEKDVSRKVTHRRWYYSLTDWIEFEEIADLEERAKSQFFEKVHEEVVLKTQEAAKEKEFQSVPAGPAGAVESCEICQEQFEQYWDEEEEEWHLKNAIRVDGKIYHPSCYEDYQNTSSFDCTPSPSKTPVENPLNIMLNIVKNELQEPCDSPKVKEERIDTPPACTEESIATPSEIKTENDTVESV
endpoint: pEC50
pEC50 is defined as minus the log10 of a concentration measured in mol/L.

Query block: Note pEC50 for the compound shown: Nc1ncnc2c1ncn2[C@@H]1O[C@H](COP(=O)(O)OP(=O)(O)OP(=O)(O)O)[C@@H](O)[C@H]1O [ATP]
Result block: 4.96

###

biological target: CF II (hClp1-hPcf11) (Homo sapiens, UniProt Q92989, R288A/R293K); experiment: biochemical
Sequence (Q92989 whole entry R288A/R293K, one chain of several): as the sequence (Q92989 whole entry E22Q, one chain of several) above, with Q22E, R288A, R293K counted along it
endpoint: EC50 (µM)
// units = µM; emit number, no label

Query block: Note EC50 for the compound shown: Nc1ncnc2c1ncn2[C@@H]1O[C@H](COP(=O)(O)OP(=O)(O)OP(=O)(O)O)[C@@H](O)[C@H]1O [ATP]
Result block: 5.7

###

target: CF II (hClp1-hPcf11) (Homo sapiens, UniProt Q92989); experiment: biochemical
Sequence (Q92989 whole entry, one chain of several): as the sequence (Q92989 whole entry E22Q, one chain of several) above, with Q22E counted along it
endpoint: EC50 (nM)
// units = nM; emit number, no label

Query block: Note EC50 for the compound shown: Nc1ncnc2c1ncn2[C@@H]1O[C@H](COP(=O)(O)OP(=O)(O)OP(=O)(O)O)[C@@H](O)[C@H]1O [ATP]
Result block: 500
